- Tested on: Plasmodium falciparum
- experiment summary: Antimalarial activity against chloroquine-resistant, mefloquine-susceptible Plasmodium falciparum W2
- Type: functional, organism-based
pIC50: −log10 of the molar value.
Some molecules, each annotated with its measured pIC50.
assay endpoint: pIC50

molecule=CC(=O)O[C@H]1C[C@H]2[C@@H]([C@H](OC(C)=O)C[C@@H]3CC4(CC[C@@]32C)OOC2(CCCCC2)OO4)[C@@H]2CC[C@H]([C@H](C)CCCNCCNc3ccnc4cc(Cl)ccc34)[C@@]12C test_value=7.64
molecule=O=C(NCCNc1ccnc2cc(Cl)ccc12)C1CCC2(CC1)OOC1(CCCCC1)OO2 test_value=8.70
molecule="OC(c1cc(C(F)(F)F)nc2c(C(F)(F)F)cccc12)C1CCCCN1 (stereo unspecified)" test_value=8.27
molecule=CC(=O)O[C@H]1C[C@H]2[C@@H]([C@H](OC(C)=O)C[C@@H]3CC4(CC[C@@]32C)OOC2(CCCCC2)OO4)[C@@H]2CC[C@H]([C@H](C)CCC(=O)NCCNc3ccnc4cc(Cl)ccc34)[C@@]12C test_value=8.35
molecule=C[C@@H]1CC[C@H]2[C@@H](C)C(=O)O[C@@H]3O[C@@]4(C)CC[C@@H]1[C@]32OO4 test_value=8.17
molecule=Clc1ccc2c(NCCNCC3CCC4(CC3)OOC3(CCCCC3)OO4)ccnc2c1 test_value=8.24

----------
- experiment summary: Metabolic stability in human liver microsomes assessed as half life
- Assay type: ADME, Microsome
assay endpoint: half-life

smiles_repr=O=C(NCCNc1ccnc2cc(Cl)ccc12)C1CCC2(CC1)OOC1(CCCCC1)OO2 assay_endpoint=half-life test_value="> 1 h"

----------
- experiment summary: Metabolic stability in mouse liver microsomes assessed as half life
- Format: ADME, Microsome
assay endpoint: half-life

smiles_repr=O=C(NCCNc1ccnc2cc(Cl)ccc12)C1CCC2(CC1)OOC1(CCCCC1)OO2 test_value="> 1 h"

----------
- Test system: Plasmodium falciparum
- experiment summary: Antimalarial activity against multidrug-resistant Plasmodium falciparum TM91C235
- Assay type: functional, organism-based
pIC50: −log10 of the molar value.
Label Satisfied for high-side pIC50 (at or above 8) and Not satisfied for low-side pIC50 (below it).

molecule=CC(=O)O[C@H]1C[C@H]2[C@@H]([C@H](OC(C)=O)C[C@@H]3CC4(CC[C@@]32C)OOC2(CCCCC2)OO4)[C@@H]2CC[C@H]([C@H](C)CCCNCCNc3ccnc4cc(Cl)ccc34)[C@@]12C group_label="Not satisfied"
molecule=O=C(NCCNc1ccnc2cc(Cl)ccc12)C1CCC2(CC1)OOC1(CCCCC1)OO2 group_label=Satisfied
molecule="OC(c1cc(C(F)(F)F)nc2c(C(F)(F)F)cccc12)C1CCCCN1 (stereo unspecified) [MEFLOQUINE]" group_label="Not satisfied"

----------
Some molecules, each annotated with its measured IC90.
- System: Plasmodium falciparum
- experiment summary: Antimalarial activity against chloroquine-resistant, mefloquine-susceptible Plasmodium falciparum W2
- Format: functional, organism-based
assay endpoint: IC90 (nM)

molecule=C[C@@H]1CC[C@H]2[C@@H](C)C(=O)O[C@@H]3O[C@@]4(C)CC[C@@H]1[C@]32OO4 uom=nM test_value=11.5
molecule="CCN(CC)CCCC(C)Nc1ccnc2cc(Cl)ccc12 (configuration not stated)" uom=nM test_value=640
molecule=Clc1ccc2c(NCCNCC3CCC4(CC3)OOC3(CCCCC3)OO4)ccnc2c1 uom=nM test_value=12.4
molecule=CC(=O)O[C@H]1C[C@H]2[C@@H]([C@H](OC(C)=O)C[C@@H]3CC4(CC[C@@]32C)OOC2(CCCCC2)OO4)[C@@H]2CC[C@H]([C@H](C)CCC(=O)NCCNc3ccnc4cc(Cl)ccc34)[C@@]12C uom=nM test_value=10.7
molecule="OC(c1cc(C(F)(F)F)nc2c(C(F)(F)F)cccc12)C1CCCCN1 (configuration not stated)" uom=nM test_value=18.6
molecule=CC(=O)O[C@H]1C[C@H]2[C@@H]([C@H](OC(C)=O)C[C@@H]3CC4(CC[C@@]32C)OOC2(CCCCC2)OO4)[C@@H]2CC[C@H]([C@H](C)CCCNCCNc3ccnc4cc(Cl)ccc34)[C@@]12C uom=nM test_value=30.3
molecule=O=C(NCCNc1ccnc2cc(Cl)ccc12)C1CCC2(CC1)OOC1(CCCCC1)OO2 uom=nM test_value=2.26

Data provenance is ChEMBL document CHEMBL1140092.
